# study-system: TRKA (G677C) (Homo sapiens, UniProt P04629, G667C)
# Sequence (P04629 33-796 G667C limits assumed): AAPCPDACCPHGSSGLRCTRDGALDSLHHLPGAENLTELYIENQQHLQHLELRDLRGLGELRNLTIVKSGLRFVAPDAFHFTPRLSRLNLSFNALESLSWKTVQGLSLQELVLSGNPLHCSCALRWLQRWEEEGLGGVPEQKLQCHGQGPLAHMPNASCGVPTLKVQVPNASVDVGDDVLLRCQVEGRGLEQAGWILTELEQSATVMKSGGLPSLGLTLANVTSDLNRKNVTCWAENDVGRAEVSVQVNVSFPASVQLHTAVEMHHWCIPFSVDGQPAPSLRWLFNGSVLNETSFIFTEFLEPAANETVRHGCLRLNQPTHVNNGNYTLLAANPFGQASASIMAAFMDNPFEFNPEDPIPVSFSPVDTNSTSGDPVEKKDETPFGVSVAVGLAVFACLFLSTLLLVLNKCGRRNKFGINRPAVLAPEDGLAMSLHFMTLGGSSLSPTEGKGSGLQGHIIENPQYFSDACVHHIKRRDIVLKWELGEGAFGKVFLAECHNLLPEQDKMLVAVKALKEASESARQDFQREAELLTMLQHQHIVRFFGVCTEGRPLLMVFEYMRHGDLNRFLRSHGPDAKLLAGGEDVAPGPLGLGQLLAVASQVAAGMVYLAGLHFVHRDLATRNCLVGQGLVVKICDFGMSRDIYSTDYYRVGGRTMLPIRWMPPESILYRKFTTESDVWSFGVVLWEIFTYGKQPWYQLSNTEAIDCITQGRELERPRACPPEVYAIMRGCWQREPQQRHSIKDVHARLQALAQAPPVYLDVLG
# test-description: Radio-tagged HotSpot kinase assay, TRKA (G677C)
# Type: biochemical
# measurement-context: 33P-ATP, 120 min, room temperature

compound	IC50
C[C@@H](Nc1ccn2ncc(C3=NOC(C)(C)N3)c2n1)c1cc(F)ccc1F	5 to 50 nM
COc1ccc(F)cc1[C@@H](C)Nc1ccn2ncc(C3=NOC4(CCCCC4)N3)c2n1	5 to 50 nM
CCOc1ccc(F)cc1[C@@H](C)Nc1ccn2ncc(C3=NOC(C)(C)N3)c2n1	0.5 to 5 nM
C[C@@H](Oc1ccn2ncc(C3=NOC(C)(C)N3)c2n1)c1c(Cl)ccc(F)c1Cl	50 to 500 nM
COc1ccc(F)cc1[C@@H](C)Nc1ccn2ncc(C3=NOC4(CCOCC4)N3)c2n1	5 to 50 nM
COc1ccc(F)cc1[C@@H](C)Nc1ccn2ncc(C3=NOC(C)(C)N3)c2n1	0.5 to 5 nM
CC(C)Oc1ccc(F)cc1[C@@H](C)Nc1ccn2ncc(C3=NOC(C)(C)N3)c2n1	5 to 50 nM
C[C@@H](Nc1ccn2ncc(C3=NOC(C)(C)N3)c2n1)c1c(Cl)ccc(F)c1Cl	5 to 50 nM
COc1ccc(F)cc1[C@@H](C)Nc1ccn2ncc(C3=NOC4(CCCC4)N3)c2n1	0.5 to 5 nM
COc1ccc(F)cc1[C@@H](C)Nc1ccn2ncc(C3=NOC(C)(c4ccc(F)cc4)N3)c2n1 (stereo partly drawn)	50 to 500 nM
[2H]C([2H])([2H])Oc1ccc(F)cc1[C@@H](C)Nc1ccn2ncc(C3=NOC(C)(C)N3)c2n1	5 to 50 nM
COc1ccc(F)cc1[C@@H](C)Nc1ccn2ncc(C3=NOC(C)(c4ccccn4)N3)c2n1 (stereo partly drawn)	50 to 500 nM
COc1ncc(F)cc1[C@@H](C)Nc1ccn2ncc(C3=NOC(C)(C)N3)c2n1	5 to 50 nM
C[C@@H](Nc1ccn2ncc(C3=NOC(C)(C)N3)c2n1)c1cc(F)ccc1Br	5 to 50 nM
CCc1ccc(F)cc1[C@@H](C)Nc1ccn2ncc(C3=NOC(C)(C)N3)c2n1	50 to 500 nM
